tested.system: Proteinase-activated receptor 1 (Homo sapiens, UniProt P25116)
Sequence (P25116 whole entry): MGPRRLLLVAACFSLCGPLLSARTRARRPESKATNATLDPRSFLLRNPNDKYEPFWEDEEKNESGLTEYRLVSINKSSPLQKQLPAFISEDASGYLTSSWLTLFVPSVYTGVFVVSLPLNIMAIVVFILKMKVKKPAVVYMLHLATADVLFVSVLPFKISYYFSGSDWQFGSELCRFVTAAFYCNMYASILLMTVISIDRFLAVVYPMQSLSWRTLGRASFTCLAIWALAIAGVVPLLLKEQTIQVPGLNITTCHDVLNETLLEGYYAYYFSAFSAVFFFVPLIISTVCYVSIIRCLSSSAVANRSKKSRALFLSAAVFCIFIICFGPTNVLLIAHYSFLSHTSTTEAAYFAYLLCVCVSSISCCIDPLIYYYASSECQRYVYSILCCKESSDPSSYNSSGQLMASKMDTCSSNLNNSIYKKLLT
experiment.notes: Inhibitory activity against binding to Thrombin receptor 1 (PAR-1)
measured.property: IC50 (µM)

Study these solved cases before continuing.
In plain terms, `C=Cc1ccc(Cn2ccc3c4c(N)nc(N)nc4ccc32)cc1` has a documented IC50 of 9.6

In plain terms, `CC(C)c1ccc(Cn2ccc3c4c(N)nc(N)nc4ccc32)cc1` has a documented IC50 of 0.3

In plain terms, `CC(C)c1ccc(Cn2ccc3c4c(N(C)C)nc(N(C)C)nc4ccc32)cc1` has a documented IC50 of 1.25

P: CC(C)c1ccc(Cn2ccc3c4c(N)nc(N5CCCCC5)nc4ccc32)cc1
Q: CC(C)c1ccc(Cn2ccc3c4c(N)nc(N(C)C5CC5)nc4ccc32)cc1
Thinking about recorded IC50 values, which is higher, P or Q ? Write down the label of the entry you select.
P

P: CNc1nc(N(C)C)nc2ccc3c(ccn3Cc3ccc(C(C)C)cc3)c12
Q: CNc1nc(N)c2c(ccc3c2ccn3Cc2ccc(C(C)C)cc2)n1
R: CC(C)c1ccc(Cn2ccc3c4c(N)nc(NC5CC5)nc4ccc32)cc1
Order each entry by recorded IC50, climbing from the minimum. Please write the labels in the order that was asked for.
R, Q, P
(R: 0.056 µM, Q: 0.87 µM, P: 3.2 µM)

1: CCNc1nc(N)c2c(ccc3c2ccn3Cc2ccc(C(C)C)cc2)n1
2: CSc1ccc(Cn2ccc3c4c(N)nc(N)nc4ccc32)cc1
Thinking about recorded IC50 values, which is higher, 1 or 2 ? Write down the label of the entry you select.
2
(2: 6.88 µM, 1: 0.524 µM)
